Where do the numbers come from? From patent US20260151379A1.

Test: Stability tests of compound of formula I and its monohydrochloride, phosphate and maleate (Example 4)
Type: physicochemical
Conditions: 40° C./75% RH-closed-2 wks
Where a name gives a salt, the structure may show the parent alone.
This listing pairs compounds with measured Purity %.

| compound | reportedMetric | valueMeasured |
| --- | --- | --- |
| COc1cc(C)c2[nH]ccc2c1CN1CCC(OCC2CC2)CC1c1ccc(C(=O)O)cc1.O=C(O)C=CC(=O)O (stereo not shown) [Compound of formula I Maleate] | Purity % | 99.78% |

### Prompt Using known records, supply Purity % for COc1cc(C)c2[nH]ccc2c1CN1CCC(OCC2CC2)CC1c1ccc(C(=O)O)cc1.O=P(O)(O)O (stereo not shown) [Compound of formula I Phosphate]
### Response 99.63%

### Prompt Using known records, supply Purity % for COc1cc(C)c2[nH]ccc2c1CN1CC[C@H](OCC2CC2)C[C@H]1c1ccc(C(=O)O)cc1 [Compound of formula I]
### Response 99.23%

### Prompt Using known records, supply Purity % for COc1cc(C)c2[nH]ccc2c1CN1CC[C@H](OCC2CC2)C[C@H]1c1ccc(C(=O)O)cc1 [Compound of formula I Monohydrochloride]
### Response 99.57%

###

This listing pairs compounds with measured Maximum single impurity %.
Assay: Stability tests of compound of formula I and its monohydrochloride, phosphate and maleate (Example 4)
Assay type: physicochemical
Settings: 40° C./75% RH-closed-2 wks
Where a name gives a salt, the structure may show the parent alone.
Unit % implied. Number only.

In the examples that follow, each entry is paired with its recorded Maximum single impurity %.
| compound | unitLabel | Maximum single impurity % |
| --- | --- | --- |
| COc1cc(C)c2[nH]ccc2c1CN1CCC(OCC2CC2)CC1c1ccc(C(=O)O)cc1.O=P(O)(O)O (stereo not shown) [Compound of formula I Phosphate] | % | 0.09 |
| COc1cc(C)c2[nH]ccc2c1CN1CC[C@H](OCC2CC2)C[C@H]1c1ccc(C(=O)O)cc1 [Compound of formula I Monohydrochloride] | % | 0.11 |
| COc1cc(C)c2[nH]ccc2c1CN1CC[C@H](OCC2CC2)C[C@H]1c1ccc(C(=O)O)cc1 [Compound of formula I] | % | 0.16 |

Please examine the following record next.
### Prompt Using known records, supply Maximum single impurity % for COc1cc(C)c2[nH]ccc2c1CN1CCC(OCC2CC2)CC1c1ccc(C(=O)O)cc1.O=C(O)C=CC(=O)O (stereo not shown) [Compound of formula I Maleate]
### Response 0.08

###

Assay: Stability tests of compound of formula I and its monohydrochloride, phosphate and maleate (Example 4)
Format: physicochemical
Settings: 40° C./75% RH-open-2 wks
Description: The stability of the compound of formula I, the monohydrochloride of the compound of formula I in Example 1, the phosphate of the compound of formula I in Example 2, and the maleate of the compound of formula I in Example 3 were investigated. Stability investigation conditions: 40° C./75% RH-closed, 40° C./75% RH-open, and 60° C.-closed; stability investigation content: changes in related substances and crystal forms. […]
Where a name gives a salt, the structure may show the parent alone.
reportedMetric: Maximum single impurity %
A complete answer gives the number followed by the unit.

| molecule | valueMeasured |
| --- | --- |
| COc1cc(C)c2[nH]ccc2c1CN1CC[C@H](OCC2CC2)C[C@H]1c1ccc(C(=O)O)cc1 [Compound of formula I] | 0.17% |
| COc1cc(C)c2[nH]ccc2c1CN1CCC(OCC2CC2)CC1c1ccc(C(=O)O)cc1.O=P(O)(O)O (stereo not shown) [Compound of formula I Phosphate] | 0.09% |
| COc1cc(C)c2[nH]ccc2c1CN1CCC(OCC2CC2)CC1c1ccc(C(=O)O)cc1.O=C(O)C=CC(=O)O (stereo not shown) [Compound of formula I Maleate] | 0.09% |

Please examine the following record next.
### Prompt Using known records, supply Maximum single impurity % for COc1cc(C)c2[nH]ccc2c1CN1CC[C@H](OCC2CC2)C[C@H]1c1ccc(C(=O)O)cc1 [Compound of formula I Monohydrochloride]
### Response 0.10%
